- test-target: Palmitoyl-protein thioesterase ABHD10, mitochondrial (Mus musculus)
- test-description: competitive ABPP of Abhd10 versus anti-targets – biochemical, fluorescence, gel-based, mouse proteome, selectivity assay for PME-1 inhibitor project, late-stage follow-up (AID 588807)
- experimental-context: at 10 µM, stronger effect = higher value
reported-metric: inhibition (%)

INSERT INTO measurements (sample_smiles, reported_metric, reported_result) VALUES
  ('CC[C@@]1(c2cccc(Cl)c2)C(=O)N(C(=O)OC(C)C)N1C(=O)OC(C)C', 'inhibition', 100),
  ('CCOC(=O)N1C(=O)[C@@](CC)(c2cccc(C)c2)N1C(=O)OCC', 'inhibition', 100),
  ('CC[C@@]1(c2ccc(Cl)cc2)C(=O)N(C(=O)OC)N1C(=O)OC', 'inhibition', 100),
  ('COC(=O)N1C(=O)[C@](c2ccccc2)(C2CCCC2)N1C(=O)OC', 'inhibition', 0),
  ('C=CCOC(=O)N1C(=O)[C@@](CC)(c2cccc(C)c2)N1C(=O)OC', 'inhibition', 100),
  ('CC[C@@]1(c2cccc(F)c2)C(=O)N(C(=O)OC)N1C(=O)OC', 'inhibition', 95),
  ('CC[C@@]1(c2cccc(C)c2)C(=O)N(C(=O)OC(C)C)N1C(=O)OC(C)C', 'inhibition', 100),
  ('C=CCOC(=O)N1N(C(=O)OC)C(=O)[C@@]1(CC)c1ccccc1', 'inhibition', 90),
  ('CC[C@@]1(c2cccc(C)c2)C(=O)N(C(=O)OCc2ccccc2)N1C(=O)OCc1ccccc1', 'inhibition', 95),
  ('CC[C@@]1(c2cccc(C)c2)C(=O)N(C(=O)OC)N1C(=O)OC(C)C', 'inhibition', 100);

---

Here the recorded inhibition is given for each entry.
- Test system: Magl
- test-description: competitive ABPP of Abhd10 versus anti-targets – biochemical, fluorescence, gel-based, mouse proteome, selectivity assay for PME-1 inhibitor project, late-stage follow-up (AID 588807)
- experimental-context: anti-target, at 10 µM, stronger effect = higher value
reported-metric: inhibition (%)

INSERT INTO assay_data (sample_smiles, reported_result) VALUES
  ('COC(=O)N1C(=O)[C@](c2ccccc2)(C2CCCC2)N1C(=O)OC', 0),
  ('C=CCOC(=O)N1N(C(=O)OC)C(=O)[C@@]1(CC)c1cccc(C)c1', 10),
  ('Cc1cccc([C@]2(C)C(=O)N(C(=O)OCc3ccccc3)N2C(=O)OCc2ccccc2)c1', 0),
  ('CC[C@@]1(c2cccc(C)c2)C(=O)N(C(=O)OC)N1C(=O)OC', 45),
  ('CC[C@@]1(c2ccc(Cl)cc2)C(=O)N(C(=O)OC)N1C(=O)OC', 45),
  ('CC[C@@]1(c2cccc(OC)c2)C(=O)N(C(=O)OC(C)C)N1C(=O)OC(C)C', 0),
  ('CC[C@@]1(c2cccc(C)c2)C(=O)N(C(=O)OCc2ccccc2)N1C(=O)OCc1ccccc1', 0),
  ('CCOC(=O)N1C(=O)[C@@](CC)(c2ccc(C)cc2)N1C(=O)OCC', 60),
  ('CC[C@@]1(c2cccc(C)c2)C(=O)N(C(=O)OC(C)(C)C)N1C(=O)OC(C)(C)C', 0),
  ('Cc1cccc([C@]2(C)C(=O)N(C(=O)OC(C)C)N2C(=O)OC(C)C)c1', 10),
  ('CC[C@@]1(c2cccc(OC)c2)C(=O)N(C(=O)OC)N1C(=O)OC', 0),
  ('CC[C@@]1(c2ccc(C)cc2)C(=O)N(C(=O)OC)N1C(=O)OC', 10),
  ('CC[C@@]1(c2cccc(C)c2)C(=O)N(C(=O)OC(C)C)N1C(=O)OC', 0),
  ('CC[C@@]1(c2ccccc2)C(=O)N(C(=O)OC(C)C)N1C(=O)OC(C)C', 0),
  ('CC[C@@]1(c2cccc(C)c2)C(=O)N(C(=O)OC(C)C)N1C(=O)OC(C)C', 0),
  ('CC[C@@]1(c2cccc(Cl)c2)C(=O)N(C(=O)OC)N1C(=O)OC', 10),
  ('CC[C@@]1(c2cccc(F)c2)C(=O)N(C(=O)OC(C)C)N1C(=O)OC(C)C', 10),
  ('CCOC(=O)N1C(=O)[C@@](CC)(c2ccccc2)N1C(=O)OCC', 0);

---

Entries annotated with measured inhibition
- Test system: APEH
- test-description: competitive ABPP of Abhd10 versus anti-targets – biochemical, fluorescence, gel-based, mouse proteome, selectivity assay for PME-1 inhibitor project, late-stage follow-up (AID 588807)
- experimental-context: anti-target, at 10 µM, stronger effect = higher value
reported-metric: inhibition (%)

INSERT INTO assay_data (sample_smiles, reported_result) VALUES
  ('Cc1cccc([C@]2(C)C(=O)N(C(=O)OCc3ccccc3)N2C(=O)OCc2ccccc2)c1', 0),
  ('CC[C@@]1(c2ccc(C)cc2)C(=O)N(C(=O)OC(C)C)N1C(=O)OC(C)C', 15),
  ('CC[C@@]1(c2cccc(C)c2)C(=O)N(C(=O)OC(C)(C)C)N1C(=O)OC(C)(C)C', 0),
  ('CC[C@@]1(c2cccc(C)c2)C(=O)N(C(=O)OCc2ccccc2)N1C(=O)OCc1ccccc1', 0),
  ('CC[C@@]1(c2ccc(C)cc2)C(=O)N(C(=O)OC)N1C(=O)OC', 20),
  ('CC[C@]1(c2cccc(C)c2)C(=O)N(C(=O)OC(C)C)N1C(=O)OC(C)C', 0),
  ('CC[C@@]1(c2cccc(C)c2)C(=O)N(C(=O)OC)N1C(=O)OC', 50),
  ('C=CCOC(=O)N1N(C(=O)OC)C(=O)[C@@]1(CC)c1ccccc1', 0),
  ('CCOC(=O)N1C(=O)[C@@](CC)(c2ccccc2)N1C(=O)OCC', 55),
  ('CCOC(=O)N1C(=O)[C@@](CC)(c2cccc(C)c2)N1C(=O)OCC', 70),
  ('CCCOC(=O)N1C(=O)[C@@](CC)(c2ccc(C)cc2)N1C(=O)OCCC', 0),
  ('CC[C@]1(c2ccc(C)cc2)C(=O)N(C(=O)OC(C)C)N1C(=O)OC(C)C', 100),
  ('C=CCOC(=O)N1C(=O)[C@@](CC)(c2cccc(C)c2)N1C(=O)OCC=C', 20),
  ('CCOC(=O)N1C(=O)[C@@](C)(c2cccc(C)c2)N1C(=O)OCC', 45),
  ('CC[C@@]1(c2cccc(C)c2)C(=O)N(C(=O)OCC(Cl)(Cl)Cl)N1C(=O)OCC(Cl)(Cl)Cl', 0),
  ('CC[C@@]1(c2ccc(Cl)c(Cl)c2)C(=O)N(C(=O)OC)N1C(=O)OC', 55),
  ('CC[C@@]1(c2cccc(F)c2)C(=O)N(C(=O)OC)N1C(=O)OC', 0),
  ('CC[C@]1(c2cccc(C)c2)C(=O)N(C(=O)OC)N1C(=O)OC', 0),
  ('C=CCOC(=O)N1C(=O)[C@@](CC)(c2ccccc2)N1C(=O)OCC=C', 55),
  ('C=CCOC(=O)N1C(=O)[C@@](CC)(c2cccc(C)c2)N1C(=O)OC', 55),
  ('CC[C@@]1(c2cccc(Cl)c2)C(=O)N(C(=O)OC(C)C)N1C(=O)OC(C)C', 65),
  ('CC[C@@]1(c2cccc(C)c2)C(=O)N(C(=O)OC)N1C(=O)OC(C)C', 20);

---

Reported inhibition is given for each of the following compounds.
- test-target: Palmitoyl-protein thioesterase ABHD10, mitochondrial (Mus musculus) (UniProt Q6PE15)
- Sequence (Q6PE15 whole entry, looked up): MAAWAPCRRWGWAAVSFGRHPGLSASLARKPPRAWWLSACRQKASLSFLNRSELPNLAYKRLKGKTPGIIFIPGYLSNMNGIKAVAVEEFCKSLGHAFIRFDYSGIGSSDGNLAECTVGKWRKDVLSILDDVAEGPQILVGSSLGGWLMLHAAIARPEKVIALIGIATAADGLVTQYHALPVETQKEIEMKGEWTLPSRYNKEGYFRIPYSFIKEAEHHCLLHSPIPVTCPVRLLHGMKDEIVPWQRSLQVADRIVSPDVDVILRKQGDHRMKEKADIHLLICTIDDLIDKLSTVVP
- test-description: competitive ABPP of Abhd10 versus anti-targets – biochemical, fluorescence, gel-based, mouse proteome, selectivity assay for PME-1 inhibitor project, late-stage follow-up (AID 588807)
- experimental-context: inhibition, at 1 µM, stronger effect = higher value
reported-metric: inhibition (%)

INSERT INTO assay_data (sample_smiles, reported_metric, scale_unit, reported_result) VALUES
  ('CC[C@@]1(c2cccc(C)c2)C(=O)N(C(=O)OC(C)(C)C)N1C(=O)OC(C)(C)C', 'inhibition', '%', 10),
  ('Cc1cccc([C@]2(C)C(=O)N(C(=O)OC(C)C)N2C(=O)OC(C)C)c1', 'inhibition', '%', 95),
  ('CC[C@@]1(c2cccc(Cl)c2)C(=O)N(C(=O)OC)N1C(=O)OC', 'inhibition', '%', 90),
  ('CC[C@@]1(c2ccc(Cl)c(Cl)c2)C(=O)N(C(=O)OC)N1C(=O)OC', 'inhibition', '%', 70),
  ('C=CCOC(=O)N1C(=O)[C@@](CC)(c2cccc(C)c2)N1C(=O)OCC=C', 'inhibition', '%', 85),
  ('CC[C@@]1(c2ccc(Cl)c(Cl)c2)C(=O)N(C(=O)OC(C)C)N1C(=O)OC(C)C', 'inhibition', '%', 90);

---

- test-target: Prolyl endopeptidase (Mus musculus) (UniProt Q9QUR6)
- Sequence (Q9QUR6 whole entry, looked up): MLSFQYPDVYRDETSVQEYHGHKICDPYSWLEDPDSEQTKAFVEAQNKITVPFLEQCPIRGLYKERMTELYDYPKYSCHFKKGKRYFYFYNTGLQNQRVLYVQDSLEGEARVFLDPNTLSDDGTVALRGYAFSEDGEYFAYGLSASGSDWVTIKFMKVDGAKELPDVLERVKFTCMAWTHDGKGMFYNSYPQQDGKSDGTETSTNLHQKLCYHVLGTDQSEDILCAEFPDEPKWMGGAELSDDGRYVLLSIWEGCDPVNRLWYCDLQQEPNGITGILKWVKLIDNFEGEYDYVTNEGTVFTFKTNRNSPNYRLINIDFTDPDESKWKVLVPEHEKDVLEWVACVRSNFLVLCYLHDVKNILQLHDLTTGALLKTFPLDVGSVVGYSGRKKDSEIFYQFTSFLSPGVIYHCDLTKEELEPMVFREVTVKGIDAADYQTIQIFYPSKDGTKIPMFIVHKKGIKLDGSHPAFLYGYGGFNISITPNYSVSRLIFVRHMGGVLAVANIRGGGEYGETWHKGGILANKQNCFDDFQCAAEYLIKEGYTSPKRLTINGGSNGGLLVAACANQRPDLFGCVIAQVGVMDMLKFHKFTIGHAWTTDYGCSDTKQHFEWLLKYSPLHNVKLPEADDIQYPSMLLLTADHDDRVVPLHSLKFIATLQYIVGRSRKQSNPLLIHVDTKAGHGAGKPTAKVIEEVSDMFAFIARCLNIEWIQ
- test-description: competitive ABPP of Abhd10 versus anti-targets – biochemical, fluorescence, gel-based, mouse proteome, selectivity assay for PME-1 inhibitor project, late-stage follow-up (AID 588807)
- experimental-context: PREP, anti-target, inhibition, at 1 µM, stronger effect = higher value
# Lookup of reported inhibition keyed by entry
reported-metric: inhibition (%)

INSERT INTO measurements (compound, reported_result) VALUES
  ('CC[C@@]1(c2cccc(C)c2)C(=O)N(C(=O)OC(C)C)N1C(=O)OC(C)C', 20),
  ('CC[C@@]1(c2ccccc2)C(=O)N(C(=O)OC(C)C)N1C(=O)OC(C)C', 10),
  ('CC[C@@]1(c2cccc(C)c2)C(=O)N(C(=O)OC(C)C)N1C(=O)OC', 10),
  ('CC[C@@]1(c2ccc(C)cc2)C(=O)N(C(=O)OC(C)C)N1C(=O)OC(C)C', 30),
  ('C=CCOC(=O)N1C(=O)[C@@](CC)(c2cccc(C)c2)N1C(=O)OC', 20),
  ('C=CCOC(=O)N1N(C(=O)OC)C(=O)[C@@]1(CC)c1ccccc1', 25),
  ('CCOC(=O)N1C(=O)[C@@](CC)(c2ccccc2)N1C(=O)OCC', 20),
  ('CCCOC(=O)N1C(=O)C(CC)(c2cccc(C)c2)N1C(=O)OCCC (stereo not drawn)', 20);
